# Test target: human plasma kallikrein (human, UniProt P03952 20-390; P03952 391-638)
# Sequence (P03952 20-390, chain 1 of 2): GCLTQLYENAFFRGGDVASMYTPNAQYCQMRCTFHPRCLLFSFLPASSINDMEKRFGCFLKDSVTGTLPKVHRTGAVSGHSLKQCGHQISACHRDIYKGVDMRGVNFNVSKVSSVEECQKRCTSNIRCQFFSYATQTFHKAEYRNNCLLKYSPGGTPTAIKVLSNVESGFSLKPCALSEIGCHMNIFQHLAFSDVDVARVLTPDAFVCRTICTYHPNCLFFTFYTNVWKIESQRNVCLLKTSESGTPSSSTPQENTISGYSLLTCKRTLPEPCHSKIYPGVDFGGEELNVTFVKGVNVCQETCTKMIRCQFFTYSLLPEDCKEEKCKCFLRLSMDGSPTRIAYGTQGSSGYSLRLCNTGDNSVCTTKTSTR
# Sequence (P03952 391-638, chain 2 of 2): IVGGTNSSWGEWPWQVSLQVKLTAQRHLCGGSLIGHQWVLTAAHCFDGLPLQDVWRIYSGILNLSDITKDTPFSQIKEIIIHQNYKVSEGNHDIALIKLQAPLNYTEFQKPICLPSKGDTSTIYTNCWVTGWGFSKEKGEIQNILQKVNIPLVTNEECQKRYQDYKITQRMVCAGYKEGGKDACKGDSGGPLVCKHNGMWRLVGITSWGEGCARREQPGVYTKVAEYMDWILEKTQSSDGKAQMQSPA
# Test description: cell-based or functional assay
Quantity: % inhibition at 10 nM (%)
Numbers only, in %.

Below, 2 binders whose answers are already recorded.
Inquiry: Entry under review: M202-B04 (Fab, V domains shown) VH: EVQLLESGGGLVQPGGSLRLSCAASGFTFSHYIMMWVRQAPGKGLEWVSGIYSSGGITVYADSVKGRFTISRDNSKNTLYLQMNSLRAEDTAVYYCAYRRSGVPRRDDFDIWGQGTMVTVSS VL: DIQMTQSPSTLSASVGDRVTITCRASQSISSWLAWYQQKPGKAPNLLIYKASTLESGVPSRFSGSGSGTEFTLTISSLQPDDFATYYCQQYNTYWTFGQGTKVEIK . Reported % inhibition at 10 nM?
Reply text: 81.9

Inquiry: Entry under review: M201-H06 (Fab, V domains shown) VH: EVQLLESGGGLVQPGGSLRLSCAASGFTFSHYIMMWVRQAPGKGLEWVSGIYSSGGITVYADSVKGRFTISRDNSKNTLYLQMNSLRAEDTAVYYCAYRRTGVPRRDAFDIWGQGTMVTVSS VL: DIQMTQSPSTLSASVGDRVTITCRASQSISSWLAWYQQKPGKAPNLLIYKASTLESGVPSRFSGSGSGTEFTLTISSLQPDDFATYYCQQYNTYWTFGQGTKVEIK . Reported % inhibition at 10 nM?
Reply text: 84.6

Next up:
Inquiry: Entry under review: M200-D03 (Fab, V domains shown, Tested as Fab; printed HC runs into CH1) VH: EVQLLESGGGLVQPGGSLRLSCAASGFTFSHYIMMWVRQAPGKGLEWVSGIYSSGGITVYADSVKGRFTISRDNSKNTLYLQMNSLRAEDTAVYYCAWRRIGVPRRDSFDMWGQGTMVTVSS VL: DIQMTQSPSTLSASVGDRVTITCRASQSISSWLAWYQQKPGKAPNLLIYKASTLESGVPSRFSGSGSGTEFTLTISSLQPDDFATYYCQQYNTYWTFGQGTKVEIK . Reported % inhibition at 10 nM?
Reply text: 95.9
